# testSummary: Peracetic acid generation from hydroxyapatite bound CE-7 perhydrolase fusions (Example 8)
# Type: biochemical
# measurementSetup: hydroxyapatite particles exposed to 10 μM enzyme, washed; 100 mM triacetin, 100 mM H2O2, 30 min, 37° C.; no enzyme 30-118.8
observable: Peracetic acid (ppm)
Give me the value, and tack the unit on after it.

Exercise: For the molecule shown here, EZ-30: Mlo-link1-H6, SEQ ID NO: 454 (protein) MPFPDLIQPELGAYVSSVGMPDDFAQFWTSTIAEARQAGGEVSIVQAQTTLKAVQSFDVTFPGYGGHPIKGWLILPTHHKGRLPLVVQYIGYGGGRGLAHEQLHWAASGFAYFRMDTRGQGSDWSVGETADPVGSTSSIPGFMTRGVLDKNDYYYRRLFTDAVRAIDALLGLDFVDPERIAVCGDSQGGGISLAVGGIDPRVKAVMPDVPFLCDFPRAVQTAVRDPYLEIVRFLAQHREKKAAVFETLNYFDCVNFARRSKAPALFSVALMDEVCPPSTVYGAFNAYAGEKTITEYEFNNHEGGQGYQERQQMTWLSRLFGVGGPGSGGAGSPGSAGGPGSHHHHHH , give the reported Peracetic acid (ppm).
Solution: 658.5 ppm
